Molecular target: Muscarinic acetylcholine receptor M4 (Homo sapiens) (UniProt P08173)
Sequence (P08173 whole entry): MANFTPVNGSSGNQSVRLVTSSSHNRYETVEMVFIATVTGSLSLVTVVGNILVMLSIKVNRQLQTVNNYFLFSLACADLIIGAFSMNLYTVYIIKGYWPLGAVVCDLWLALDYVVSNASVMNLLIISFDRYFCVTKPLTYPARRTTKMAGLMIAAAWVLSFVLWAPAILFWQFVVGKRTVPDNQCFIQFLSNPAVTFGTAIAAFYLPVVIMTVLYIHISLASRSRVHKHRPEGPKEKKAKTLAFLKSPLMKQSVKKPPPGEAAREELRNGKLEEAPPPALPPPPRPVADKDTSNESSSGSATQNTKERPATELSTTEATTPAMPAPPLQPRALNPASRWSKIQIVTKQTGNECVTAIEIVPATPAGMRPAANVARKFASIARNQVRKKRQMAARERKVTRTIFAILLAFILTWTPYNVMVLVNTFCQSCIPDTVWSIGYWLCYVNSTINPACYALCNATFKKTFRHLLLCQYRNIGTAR
Settings: Compound concentration 10 µM
Description: PDSP Primary Binding target: CHRM4 - Compounds are tested at 10 uM concentration, plate are incubated at room temperature in the dark for 90 minutes. Reaction are stopped by vacuum filtration onto 0.3% polyethyleneimine soaked filter mats using Filtermate harvester. Scintilation cocktail is then melted onto microwave-dried filters on a hot plate and the radio activity is counted in Microbia counter.
Kindly supply the reported inhibition values for the records listed here.
One number for each entry, in %.

# compound string, tested target, inhibition (%)
records = [
    ("CC(C)(C)NC[C@H](O)COc1nsnc1N1CCOCC1", "Muscarinic acetylcholine receptor M4 (Homo sapiens) (UniProt P08173)", -8.25),
    ("Cc1cc(C(=O)N2Cc3cnn(C)c3Nc3ccccc32)ccc1CNC(=O)N1CCC[C@H]1C(=S)N1CCCN(C)CC1", "Muscarinic acetylcholine receptor M4 (Homo sapiens) (UniProt P08173)", 63),
    ("O=C(O)c1cc(-c2ccc(C3CCNCC3)cc2)c2ccc(-c3ccc(C(F)(F)F)cc3)cc2c1", "Muscarinic acetylcholine receptor M4 (Homo sapiens) (UniProt P08173)", -1.1),
    ("Cc1cc(C)cc(C(=O)N(C)[C@H](Cc2ccc(-c3ccccc3)cc2)C(=O)N[C@@H](Cc2c[nH]c3ccccc23)C(=O)O)c1", "Muscarinic acetylcholine receptor M4 (Homo sapiens) (UniProt P08173)", 1),
    ("N#Cc1ccc2[nH]cc(CCCCN3CCN(c4ccc5oc(C(N)=O)cc5c4)CC3)c2c1", "Muscarinic acetylcholine receptor M4 (Homo sapiens) (UniProt P08173)", 5.32),
    ("C=CCN1C[C@H](C)N([C@H](c2ccc(C(=O)N(CC)CC)cc2)c2cccc(O)c2)C[C@H]1C", "Muscarinic acetylcholine receptor M4 (Homo sapiens) (UniProt P08173)", -5.52),
]

Lab note: each molecule below needs its inhibition filled in.
1. N#Cc1ccc(NC(=O)Nc2ccccc2Br)c2nn[nH]c12
2. CCc1cc2c(cc1CC)CC(NC[C@H](O)c1ccc(O)c3[nH]c(=O)ccc13)C2

1: 33.1; 2: 17.9

Would you mind telling me what inhibition value was observed for COc1ccc(NC(=O)c2ccc(-c3ccc(-c4noc(C)n4)cc3C)cc2)cc1OCCN(C)C ?
7.57

----------
Target: Muscarinic acetylcholine receptor M4 (Homo sapiens) (UniProt P08173)
Settings: Compound concentration 10 µM; call rule not given here
Outcome field: choose from yes for active, no for inactive

Solved entries:
# compound, class label
measured = [
    ("O=C(O)COc1cccc(CN(Cc2ccc(-n3cccn3)cc2)S(=O)(=O)c2cccnc2)c1", "no"),
    ("C[C@@H](NCCCc1cccc(C(F)(F)F)c1)c1cccc2ccccc12", "no"),
]

# next compound below
Record request — test call for Cc1c(C(=O)NC2CCCCC2)sc2nc3ccc(N)cc3n12
no

----------
Target: Kappa-type opioid receptor (Homo sapiens)
Details: Compound concentration 10 µM; call rule not given here
Outcome field: choose from YES (active), NO (inactive)

Solved entries:
# compound, class label
measured = [
    ("Oc1ccc2c3c1O[C@H]1c4[nH]c5c(c4C[C@@]4(O)[C@@H](C2)N(CC2CC2)CC[C@]314)C[C@@]1(O)[C@H]2Cc3ccc(O)c4c3[C@@]1(CCN2CC1CC1)[C@H]5O4", "YES"),
    ("Clc1cccc(Cl)c1NC1=NCCN1", "NO"),
    ("O=C(Nc1ccc(Cl)cc1)Nc1cccc(-c2cccc(N3CCCC3)n2)c1", "NO"),
    ("COc1ccc(NC(=O)c2ccc(-c3ccc(-c4noc(C)n4)cc3C)cc2)cc1OCCN(C)C", "NO"),
    ("N#Cc1cccc(C(=O)Nc2cc(-c3ccccc3)nn2-c2ccccc2)c1", "NO"),
    ("CCCCCCCCCCCCCCCCOC[C@H](COP(=O)([O-])OCC[N+](C)(C)C)OC(C)=O", "NO"),
    ("OCc1cc(C(O)CNCCCCCCOCCCCc2ccccc2)ccc1O (centres undefined)", "NO"),
    ("CC1=C2C[C@H]3[C@@H](CC=C4C[C@@H](O)CC[C@@]43C)[C@@H]2CC[C@]12O[C@@H]1C[C@H](C)CN[C@H]1[C@H]2C", "NO"),
    ("N#Cc1ccc2[nH]cc(CCCCN3CCN(c4ccc5oc(C(N)=O)cc5c4)CC3)c2c1", "NO"),
    ("COc1ccc(S(=O)(=O)N2c3ccc(Cl)cc3[C@](O)(c3ccccc3Cl)[C@@H]2C(=O)N2CCC[C@H]2C(N)=O)cc1OC", "NO"),
]

Record request — test call for CCCCC#Cc1nc(NC)c2ncn([C@@H]3O[C@H](CO)[C@@H](O)[C@H]3O)c2n1
NO

Record request — test call for Cc1ccc2c(c1)c1c(n2CCc2ccc(C)nc2)CCN(C)C1
NO

Record request — test call for CCc1cc(C(C)=O)c(O)cc1OCCCCCC(C)(C)c1nn[nH]n1
NO

Record request — test call for COc1cc2nc(N3CCN(C(=O)c4ccco4)CC3)nc(N)c2cc1OC
NO

Record request — test call for CCCCCCCCCCCCC/C=C/[C@@H](O)[C@@H](N)COP(=O)(O)O
NO

Record request — test call for COc1ccccc1CN[C@H]1C2CCN(CC2)[C@H]1C(c1ccccc1)c1ccccc1
NO

----------
Target: Sigma intracellular receptor 2 (Homo sapiens)
Conditions: Compound concentration 10 µM
Description: PDSP Primary Binding target: TMEM97 - Compounds are tested at 10 uM concentration, plate are incubated at room temperature in the dark for 90 minutes. Reaction are stopped by vacuum filtration onto 0.3% polyethyleneimine soaked filter mats using Filtermate harvester. Scintilation cocktail is then melted onto microwave-dried filters on a hot plate and the radio activity is counted in Microbia counter.
Assign a class from recorded inhibition; defined classes: b0 = under 30%, b1 = from 30% up to 80%, b2 = 80% and over

Solved entries:
# compound, class label
data = [
    ("CN1CCCC(n2nc(Cc3ccc(Cl)cc3)c3ccccc3c2=O)CC1 (stereo not given)", "b2"),
    ("COc1ccc(S(=O)(=O)c2cc(OC)ccc2S(=O)(=O)c2ccc([C@H](C)NS(C)(=O)=O)cc2)cc1", "b1"),
    ("COc1ccc(Br)cc1S(=O)(=O)NC(=O)/C=C/c1ccccc1Cc1ccc2ccccc2c1", "b0"),
]

Any idea which band CCc1cc2c(c(CC)n1)CCC(=O)N2Cc1ccc(-c2ccccc2-c2nnn[nH]2)cc1 is in?
b0

Any idea which band Cc1nc(C#Cc2ccnc(Cl)c2)c(C)n1-c1ccc(OC(F)(F)F)cc1 is in?
b1

Any idea which band COc1ccc(CNC(=O)c2cc(-c3cncc(Cl)c3)cnc2-c2ccccn2)nc1OC is in?
b0

Any idea which band COc1ccc(NC(=O)c2ccc(-c3ccc(-c4noc(C)n4)cc3C)cc2)cc1OCCN(C)C is in?
b2

Any idea which band CCCn1c(=O)c2nc(C34CC5CC(CC3C5)C4)[nH]c2n(CCC)c1=O is in?
b1

Any idea which band COc1ccccc1N1CCN(CCCCNC(=O)c2ccc3ccccc3c2)CC1 is in?
b2

Any idea which band Brc1c(NC2=NCCN2)ccc2nccnc12 is in?
b1

----------
Target: UniProt:P14416
Sequence (P14416 whole entry): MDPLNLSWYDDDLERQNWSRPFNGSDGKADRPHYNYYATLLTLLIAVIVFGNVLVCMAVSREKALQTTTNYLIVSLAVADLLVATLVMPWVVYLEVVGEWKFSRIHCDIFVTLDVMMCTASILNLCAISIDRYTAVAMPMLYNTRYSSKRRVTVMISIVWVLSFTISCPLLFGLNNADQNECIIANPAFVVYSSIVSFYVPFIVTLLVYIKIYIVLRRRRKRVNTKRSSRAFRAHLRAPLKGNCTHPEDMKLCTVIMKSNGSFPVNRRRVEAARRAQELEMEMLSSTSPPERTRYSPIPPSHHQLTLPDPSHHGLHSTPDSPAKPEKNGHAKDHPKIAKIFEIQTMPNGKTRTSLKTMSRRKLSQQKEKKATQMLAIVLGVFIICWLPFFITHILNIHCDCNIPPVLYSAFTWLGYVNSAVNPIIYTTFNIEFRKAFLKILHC
Conditions: Compound concentration 10 µM; call rule not given here
Outcome field: choose from 1 (yes) (active), 0 (no) (inactive)

Solved entries:
# compound, tested target, class label
records = [
    ("Cc1c(OCc2cccc(-c3ccc(C(=O)O)cc3)c2)cc2c(c1C)C(=O)C(C1CCCC1)C2 (stereo unspecified)", "UniProt:P14416", "0 (no)"),
    ("CCCCCNC(=N)N/N=C/c1c[nH]c2ccc(OC)cc12", "UniProt:P14416", "1 (yes)"),
    ("NCCc1cn(S(=O)(=O)c2c(Cl)nc3sccn23)c2ccccc12", "UniProt:P14416", "0 (no)"),
    ("CCc1ccc(OCc2ccccc2C(=O)Nc2ccc3nc(C)cc(N)c3c2)cc1", "UniProt:P14416", "0 (no)"),
]

Record request — test call for CC(C)Oc1ccccc1C(=O)Nc1ccccc1C(=O)Nc1cccc(S(=O)(=O)C(F)(F)F)c1
0 (no)

Record request — test call for CC(C)[C@H](CO)Nc1nc(Nc2cccc(Cl)c2)c2ncn(C(C)C)c2n1
0 (no)

Record request — test call for Brc1c(NC2=NCCN2)ccc2nccnc12
0 (no)

----------
Biological target: UniProt:P28221
Sequence (P28221 whole entry): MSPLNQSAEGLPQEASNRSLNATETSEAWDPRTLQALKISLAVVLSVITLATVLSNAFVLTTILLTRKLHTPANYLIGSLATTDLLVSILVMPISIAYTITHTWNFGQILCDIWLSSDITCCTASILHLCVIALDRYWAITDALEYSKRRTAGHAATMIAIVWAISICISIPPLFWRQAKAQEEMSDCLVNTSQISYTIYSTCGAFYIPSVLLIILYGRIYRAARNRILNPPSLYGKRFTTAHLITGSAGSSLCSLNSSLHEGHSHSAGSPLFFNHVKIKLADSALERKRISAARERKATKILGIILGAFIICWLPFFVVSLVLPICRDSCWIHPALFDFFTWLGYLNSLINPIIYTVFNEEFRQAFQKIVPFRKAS
Settings: Compound concentration 10 µM
Description: PDSP Primary Binding target: HTR1D - Compounds are tested at 10 uM concentration, plate are incubated at room temperature in the dark for 90 minutes. Reaction are stopped by vacuum filtration onto 0.3% polyethyleneimine soaked filter mats using Filtermate harvester. Scintilation cocktail is then melted onto microwave-dried filters on a hot plate and the radio activity is counted in Microbia counter.
Kindly supply the reported inhibition values for the records listed here.
Give bare numbers, in %.

Solved cases below.
# compound, tested target, units label, inhibition
records = [
    ("Cc1c(F)cccc1NC(=O)Nc1ccc(Cl)c(S(=O)(=O)[C@H]2CCCNC2)c1O", "UniProt:P28221", "%", -2.39),
    ("NC[C@H](O)c1ccc(O)c(O)c1", "UniProt:P28221", "%", 24.3),
    ("COc1ccc(OC(F)(F)F)cc1CN[C@H]1CCCN[C@H]1c1ccccc1", "UniProt:P28221", "%", -4.51),
]

Lab note: each compound below needs its inhibition filled in.
1. Cc1c(OCc2cccc(-c3ccc(C(=O)O)cc3)c2)cc2c(c1C)C(=O)C(C1CCCC1)C2 (stereo unspecified)
2. CCN(CC)CCCCC1CCN(CC(=O)N2c3ccccc3C(=O)Nc3cccnc32)CC1
3. Cc1csc(NC(=O)c2cc(F)cc(Oc3cncnc3)c2)n1
4. CCCCCCCCCCCCCCCCOC[C@H](COP(=O)([O-])OCC[N+](C)(C)C)OC(C)=O
5. COc1cccc([C@H](O)C2CCN(CCc3ccc(F)cc3)CC2)c1OC
6. CN1C(=O)[C@@H](NC(=O)c2cc3ccccc3[nH]2)N=C(c2ccccc2)c2ccccc21
7. CC(C)(N)C(=O)N[C@H](COCc1ccccc1)C(=O)N1CCC2(CC1)CN(S(C)(=O)=O)c1ccccc12

0.61
33.2
5.84
68.2
73.8
23.2
30.2
